- Test system: MS2 coat protein
- EXPERIMENT NOTES: apparent KD of MS2 coat protein; designed switch direction (-1 OFF switch, 1 ON switch): 1; higher = weaker reporter binding
- EXPERIMENTAL SETUP: Eterna round: R95; input ligand: none
Would you mind labelling by apparent KD of MS2 coat protein? At or over 30 nM is YES, under is NO.

Example entries and their recorded answers appear below.
• UGGCCAGCCUGUGCUGGGCUUUAGCAUGUACAUGAGGAUCACCCAUGUCGUGUACAUGCUUUUUGCUCGUCUUUAAA [Photon Torp-06] (puzzle: Sensor for hsa-mir-208a) = YES
• ACUUGCUUUUUGCUCGUAUAUUGUCCGUUACAUGAGGAUCACCCAUGUGUAUAUUAUGUGUUGUUUUUGAUACGUGU [JR_SHM208A_Sub069] (puzzle: Sensor for hsa-mir-208a) = YES
• GUUAAACAUGAGGAUCACCCAUGUCAAUGUAGUCGAGGAUAUGGGUAGCUAUGAGGCGUACUAGAAGGCGAGGAGU [Mat - Same State 1 - Mod of JL - D16] (puzzle: Same State 1) = YES
• AUAAGGCAAGCUUUUUUCUCGUAGUGUAAACAUGAGGAUCACCCAUGUGCCCACCCUGGACCUUUGGAUCGCAGAAA [Geatxe] (puzzle: Sensor for hsa-mir-208a) = NO

Data request: Hello, I need to know if UAGACAAGCUUUAUGUUCUUCCUUUUCCUACAUGAGGAUCACCCAUGUAGUCUGUCGAUUGAGAGAGUAGUUGAGAA [JR_SHM208A_Sub024] (puzzle: Sensor for hsa-mir-208a) has measured apparent KD of MS2 coat protein not below 30 nM. Thanks!
Data returned: NO
